# Assayed Target: T1, 14-3-3ε-(His)12 protein (UniProt P62258 1-255)
# T1 sequence: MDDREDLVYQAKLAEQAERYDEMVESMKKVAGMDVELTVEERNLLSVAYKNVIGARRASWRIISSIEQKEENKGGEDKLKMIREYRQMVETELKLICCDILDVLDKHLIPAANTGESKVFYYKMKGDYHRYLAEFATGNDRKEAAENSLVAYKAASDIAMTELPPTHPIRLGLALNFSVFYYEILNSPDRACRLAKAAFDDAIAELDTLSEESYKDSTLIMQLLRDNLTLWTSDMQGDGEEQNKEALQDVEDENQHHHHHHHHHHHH
# Test Description: SPR, Biacore 8K, 14-3-3ε-(His)12 on NTA chip, peptide 1 nM-2000 nM, 25° C., mean±SD
Parameter Measured: Kd

get_value(item= RTKSRTWAX (N-terminal acetyl; phospho-Thr at position 6; Tic residue at position 9; C-terminal amide, Synthetic modification of peptide pT; also called peptide pT modified with a Tic residue) [modified pT peptide, Ac-Arg-Thr-Lys-Ser-Arg-Thr(PO3^2-)-Trp-Ala-Tic-NH2] , readout=Kd) returns 30.9 nM
